# Assay Target: HDAC2 (Homo sapiens (Human), UniProt Q92769)
# Sequence (Q92769 whole entry): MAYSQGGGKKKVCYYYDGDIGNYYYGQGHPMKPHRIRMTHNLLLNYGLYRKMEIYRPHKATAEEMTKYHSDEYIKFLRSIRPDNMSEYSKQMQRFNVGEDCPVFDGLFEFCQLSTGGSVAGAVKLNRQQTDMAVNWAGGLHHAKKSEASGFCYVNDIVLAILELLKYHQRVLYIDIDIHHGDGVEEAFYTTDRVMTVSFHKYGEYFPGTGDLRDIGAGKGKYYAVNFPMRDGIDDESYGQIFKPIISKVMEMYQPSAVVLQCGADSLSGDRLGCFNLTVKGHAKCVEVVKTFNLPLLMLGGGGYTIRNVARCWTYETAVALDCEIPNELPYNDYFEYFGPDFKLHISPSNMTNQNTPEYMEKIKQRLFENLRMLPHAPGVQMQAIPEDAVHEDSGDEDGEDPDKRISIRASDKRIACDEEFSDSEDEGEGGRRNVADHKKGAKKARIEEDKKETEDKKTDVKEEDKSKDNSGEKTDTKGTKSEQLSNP
# Assay Comment: Reporter displacement assay (HDAC2)
# Assay type: binding
# Stated Conditions: reporter probe displacement, Cheng Prusoff
The compounds listed here are annotated with their Kd.
Result Type: Kd

{"Compound": "Nc1ccc(-c2ccc(F)cc2)cc1NC(=O)N1CCC2(CC1)CCN(C1COC1)C2", "Result Type": "Kd", "Observed Measurement": "100 to 500 nM"}
{"Compound": "Nc1ccc(-c2ccc(F)cc2)cc1NC(=O)N1CC2CN(C(=O)OC3CCC3)CC2C1 (centres unmarked)", "Result Type": "Kd", "Observed Measurement": "100 to 500 nM"}
{"Compound": "Nc1ccc(-c2ccoc2)cc1NC(=O)N1Cc2ccncc2C1", "Result Type": "Kd", "Observed Measurement": "< 100 nM"}
{"Compound": "CC(=O)N1C2CCC1CN(C(=O)Nc1cc(-c3ccncc3)ccc1N)C2 [Compound 107]", "Result Type": "Kd", "Observed Measurement": "> 5000 nM"}
{"Compound": "CC(C)COC(=O)N1CC2CN(C(=O)Nc3cc(-c4ccc(F)cc4)ccc3N)CC2C1 (centres unmarked)", "Result Type": "Kd", "Observed Measurement": "100 to 500 nM"}
{"Compound": "Nc1ccc(-c2ccncn2)cc1NC(=O)N1Cc2ccncc2C1", "Result Type": "Kd", "Observed Measurement": "500 to 5000 nM"}
{"Compound": "Nc1ccc(-c2ccc(F)cc2)cc1NC(=O)N1CCC2(CCOC2)CC1", "Result Type": "Kd", "Observed Measurement": "100 to 500 nM"}
{"Compound": "COc1ccc(-c2ccc(N)c(NC(=O)N3Cc4ccncc4C3)c2)cc1", "Result Type": "Kd", "Observed Measurement": "< 100 nM"}
{"Compound": "Nc1ccc(-c2ccc(OC(F)F)cc2)cc1NC(=O)N1Cc2ccncc2C1", "Result Type": "Kd", "Observed Measurement": "< 100 nM"}
{"Compound": "Nc1ccc(-c2ccc(F)cc2)cc1NC(=O)N1CCC2(CCNC2)CC1", "Result Type": "Kd", "Observed Measurement": "100 to 500 nM"}
{"Compound": "Nc1ccc(-c2ccc(C(F)(F)F)cn2)cc1NC(=O)N1Cc2ccncc2C1", "Result Type": "Kd", "Observed Measurement": "500 to 5000 nM"}
{"Compound": "CNC(=O)N1CC2CN(C(=O)Nc3cc(-c4ccc(F)cc4)ccc3N)CC2C1 (centres unmarked)", "Result Type": "Kd", "Observed Measurement": "100 to 500 nM"}
{"Compound": "CNC(=O)N1CCc2nc(C(=O)Nc3cc(-c4ccc(F)cc4)ccc3N)sc2C1", "Result Type": "Kd", "Observed Measurement": "< 100 nM"}
{"Compound": "Nc1ccc(-c2ccc(F)cc2)cc1NC(=O)N1CCC2(CCN(CCF)C2)CC1", "Result Type": "Kd", "Observed Measurement": "100 to 500 nM"}
{"Compound": "Nc1ccc(-c2cc(F)c(F)c(F)c2)cc1NC(=O)N1Cc2ccncc2C1", "Result Type": "Kd", "Observed Measurement": "500 to 5000 nM"}
{"Compound": "Nc1ccc(-c2ccc(F)cc2F)cc1NC(=O)N1Cc2ccncc2C1", "Result Type": "Kd", "Observed Measurement": "100 to 500 nM"}
{"Compound": "Nc1ccc(-c2ccc(F)c(F)c2)cc1NC(=O)N1Cc2ccncc2C1", "Result Type": "Kd", "Observed Measurement": "100 to 500 nM"}
{"Compound": "Nc1ccc(-c2ccc(F)cc2)cc1NC(=O)c1cn2c(n1)CCCC2", "Result Type": "Kd", "Observed Measurement": "500 to 5000 nM"}
{"Compound": "Nc1ccc(-c2ccncc2)cc1NC(=O)N1Cc2nccnc2C1", "Result Type": "Kd", "Observed Measurement": "100 to 500 nM"}
{"Compound": "CC(C)(C)OC(=O)N1C2CCC1CN(C(=O)Nc1cc(-c3ccncc3)ccc1N)C2 [Compound 110]", "Result Type": "Kd", "Observed Measurement": "> 5000 nM"}
{"Compound": "CC(C)(C)OC(=O)N1C2CCC1CN(C(=O)Nc1cc(-c3ccc(F)cc3)ccc1N)C2", "Result Type": "Kd", "Observed Measurement": "> 5000 nM"}
{"Compound": "Nc1ccc(-c2ccc(F)cc2)cc1NC(=O)N1Cc2nccnc2C1", "Result Type": "Kd", "Observed Measurement": "100 to 500 nM"}
{"Compound": "CC(C)OC(=O)N1CC2CN(C(=O)Nc3cc(-c4ccc(F)cc4)ccc3N)CC2C1 (centres unmarked)", "Result Type": "Kd", "Observed Measurement": "100 to 500 nM"}
{"Compound": "Nc1ccc(-c2ccc(F)cc2)cc1NC(=O)N1CC2CN(C3COC3)CC2C1 (centres unmarked)", "Result Type": "Kd", "Observed Measurement": "100 to 500 nM"}
{"Compound": "Nc1ccc(-c2ccc(C(F)(F)F)cc2F)cc1NC(=O)N1Cc2ccncc2C1", "Result Type": "Kd", "Observed Measurement": "500 to 5000 nM"}
{"Compound": "COCCN1CCC2(CCN(C(=O)Nc3cc(-c4ccc(F)cc4)ccc3N)CC2)C1", "Result Type": "Kd", "Observed Measurement": "100 to 500 nM"}
{"Compound": "N#Cc1ccc(-c2ccc(N)c(NC(=O)N3Cc4ccncc4C3)c2)cc1", "Result Type": "Kd", "Observed Measurement": "100 to 500 nM"}
{"Compound": "Nc1ccc(-c2ccncc2)cc1NC(=O)c1nc2c(s1)CCNC2", "Result Type": "Kd", "Observed Measurement": "< 100 nM"}
{"Compound": "Nc1ccc(-c2ccc(F)cc2)cc1NC(=O)N1CCC2(CCOCC2)C1", "Result Type": "Kd", "Observed Measurement": "100 to 500 nM"}
{"Compound": "Nc1ccc(-c2ccc(F)cc2)cc1NC(=O)N1CC2CN(C(=O)C3CC3)CC2C1 (centres unmarked)", "Result Type": "Kd", "Observed Measurement": "100 to 500 nM"}
{"Compound": "COCCN1CCC2(CCN(C(=O)Nc3cc(-c4ccncc4)ccc3N)CC2)C1", "Result Type": "Kd", "Observed Measurement": "100 to 500 nM"}
{"Compound": "Cn1cc(-c2ccc(N)c(NC(=O)N3Cc4ccncc4C3)c2)cn1", "Result Type": "Kd", "Observed Measurement": "100 to 500 nM"}
{"Compound": "Nc1ccc(-c2ccncc2)cc1NC(=O)N1CC2CCC(C1)O2", "Result Type": "Kd", "Observed Measurement": "> 5000 nM"}
{"Compound": "Nc1ccc(-c2ccc(F)cc2)cc1NC(=O)c1nc2c(s1)CNCC2", "Result Type": "Kd", "Observed Measurement": "100 to 500 nM"}
{"Compound": "Nc1ccc(-c2ccc(F)cc2)cc1NC(=O)N1CC2(CCCCO2)C1", "Result Type": "Kd", "Observed Measurement": "500 to 5000 nM"}
